Target: T1, 4H967-bN
T1 chain: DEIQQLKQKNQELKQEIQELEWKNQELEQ
Experiment: two-hybrid library CCNG1;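 note: natural log of median RNA to DNA barcode read ratio; higher means stronger binding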
property_name: interaction score
No unit in the answer, only the number.

binder="DEIQQLKQENQELKQKNQELEWEIQELKQ [4H754-bN]" property_name="interaction score" measured_value=-0.968
binder="DEIQQLEQKIQELKQENQELEWEIQELKQ [4H338-bN]" property_name="interaction score" measured_value=0.117
binder="DEIQQLKQKIQELEQENQELKWKIQELEQ [4H797-bN]" property_name="interaction score" measured_value=-0.535
binder="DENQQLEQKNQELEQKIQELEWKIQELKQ [4H1446-bN]" property_name="interaction score" measured_value=-1.04
binder="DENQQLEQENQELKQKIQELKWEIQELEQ [4H1257-bN]" property_name="interaction score" measured_value=-0.47
binder="DKNQQLKQKIQELEQEIQELKWKNQELEQ [4H3855-bN]" property_name="interaction score" measured_value=-0.415

Record request: interaction score value, item DEIQQLEQKIQELKQKNQELEWEIQELKQ [4H370-bN]
-0.814
